// provenance: the RNAGym collection of RNA variant scans (doi:10.7554/elife.80360)

B1: HDV Ribozyme (parent)
chain: GGCCGGCAUGGUCCCAGCCUCCUCGCUGGCGCCGGCUGGGCAACAUUCCGAGGGGACCGUCCCCUCGGUAAUGGCGAAUGGGACCCA

# Variants of: B1
# experiment.notes: self-cleavage, relative activity (ratio to wild type); higher = more cleavage; co-transcriptional
Measured self-cleavage by item
Returns: the value as a bare number; no unit string appended.

As a guide, the following entries are already answered.
INSERT INTO results (variant_identifier, observed_measurement) VALUES
  ('A8G A71G', 0.739),
  ('U47A C66A', 0.847),
  ('U37A G80U', 0.0727),
  ('G52U G73U', 0.305),
  ('U46C G55A', 0.878);

Tell me the measured self-cleavage of C18A C63A , please.
0.0692

Name the recorded self-cleavage for C64U G67U .
0.804

What does the data say about its self-cleavage? Entry: C19U U37C
0.185

Please report the recorded self-cleavage for C24U C57U .
0.538

Given the variant C3A A45G , what is its reported self-cleavage?
0.469
